- TESTED_TARGET: CAMK1D (human) (UniProt Q8IU85)
- Sequence (Q8IU85 whole entry, looked up): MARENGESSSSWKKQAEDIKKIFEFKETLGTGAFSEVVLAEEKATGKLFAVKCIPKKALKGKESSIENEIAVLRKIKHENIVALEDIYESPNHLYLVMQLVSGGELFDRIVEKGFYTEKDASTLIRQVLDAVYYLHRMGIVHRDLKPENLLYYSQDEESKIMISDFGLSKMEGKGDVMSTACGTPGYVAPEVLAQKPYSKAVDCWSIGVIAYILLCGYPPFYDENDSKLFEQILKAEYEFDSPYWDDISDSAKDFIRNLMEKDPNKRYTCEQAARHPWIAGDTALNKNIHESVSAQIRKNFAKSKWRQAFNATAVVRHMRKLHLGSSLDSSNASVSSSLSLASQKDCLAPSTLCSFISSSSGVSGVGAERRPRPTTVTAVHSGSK
- TEST_NAME: radiometric filter-binding kinase assay, Kinase HotSpot
- CONDITION_DETAILS: compound 0.5 µM; ATP 10 µM
// label = Criterion met if residual activity is not less than 90%, otherwise Criterion not met

1) CCN(CC)CCNC(=O)c1c(C)[nH]c(/C=C2\C(=O)Nc3ccc(Cl)cc32)c1C : Criterion not met

Query: Does `CCOC(=O)c1c(C)[nH]c(/C=C2\C(=O)Nc3ccccc32)c1C` have a reported residual activity of at least 90%?
Response: Criterion met

Query: Please answer likewise for `Cc1[nH]c(/C=C2\C(=O)Nc3ccc(S(=O)(=O)N(C)c4cccc(Cl)c4)cc32)c(C)c1C(=O)N1CCN(C)CC1`
Response: Criterion met

Query: Please answer likewise for `CCN(CC)C(=O)c1ccc(Nc2nc(OCC3CCCCC3)c3nc[nH]c3n2)cc1`
Response: Criterion met

Query: Please answer likewise for `O=C(Nc1cccc(Nc2nccc(Nc3cccc(C(F)(F)F)c3)n2)c1)C1CC1`
Response: Criterion met

* * *

- TESTED_TARGET: PAK1 (human) (UniProt Q13153)
- Sequence (Q13153 whole entry, looked up): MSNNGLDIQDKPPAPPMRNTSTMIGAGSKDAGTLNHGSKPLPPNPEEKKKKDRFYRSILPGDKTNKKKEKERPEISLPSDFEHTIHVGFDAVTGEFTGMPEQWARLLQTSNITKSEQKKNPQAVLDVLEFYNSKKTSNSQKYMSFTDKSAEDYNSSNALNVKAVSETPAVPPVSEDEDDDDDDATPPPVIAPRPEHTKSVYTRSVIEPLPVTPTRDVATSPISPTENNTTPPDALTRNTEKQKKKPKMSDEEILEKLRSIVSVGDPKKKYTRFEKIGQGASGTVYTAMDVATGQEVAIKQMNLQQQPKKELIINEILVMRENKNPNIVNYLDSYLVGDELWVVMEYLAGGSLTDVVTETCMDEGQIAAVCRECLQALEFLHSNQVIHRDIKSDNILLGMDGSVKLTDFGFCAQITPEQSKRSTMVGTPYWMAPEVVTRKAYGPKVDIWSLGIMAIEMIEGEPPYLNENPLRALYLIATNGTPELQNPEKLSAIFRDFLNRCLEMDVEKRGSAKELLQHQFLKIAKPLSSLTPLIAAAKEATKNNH
- TEST_NAME: radiometric filter-binding kinase assay, Kinase HotSpot
- CONDITION_DETAILS: compound 0.5 µM; ATP 10 µM
ENDPOINT_NAME: residual activity (%)
All answers are understood in %, so give the number only.

1. CCOC(=O)c1c(C)[nH]c(/C=C2\C(=O)Nc3ccccc32)c1C : 99.9
2. CC(C)N(CCC(=O)c1ccc2ccccc2c1)Cc1ccccc1 : 98.3
3. COc1ccc2c(c[n+](C)c3c4cc5c(cc4ccc23)OCO5)c1OC : 98.7
4. O=C1NC(=O)C(c2cn(CCCn3ccnc3)c3ccccc23)=C1Nc1ccccc1 : 92.9
5. Cc1[nH]c(/C=C2\C(=O)Nc3ccc(S(=O)(=O)N(C)c4cccc(Cl)c4)cc32)c(C)c1C(=O)N1CCN(C)CC1 : 87.7

Now look at this one.
Query: Find the recorded residual activity belonging to `CCN(CC)CCNC(=O)c1c(C)[nH]c(/C=C2\C(=O)Nc3ccc(F)cc32)c1C` and report it.
Response: 118

* * *

- TESTED_TARGET: FRK (human)
- TEST_NAME: radiometric filter-binding kinase assay, Kinase HotSpot
- CONDITION_DETAILS: compound 0.5 µM; ATP 10 µM
Lab note - cut at 90% for residual activity: 1 if strictly below, 0 if not.

See these solved cases before continuing.
1. O=C1NC(=O)c2c1c1c3ccccc3n3c1c1c2c2ccccc2n1C1CCC3O1 : 0
2. O=c1cc(N2CCOCC2)oc2c1ccc1ccccc12 : 0

Query: Please indicate whether the reported residual activity of `O=C1NC(=O)C(c2cn(CCCn3ccnc3)c3ccccc23)=C1Nc1ccccc1` is strictly below 90%.
Response: 0

Query: Please answer likewise for CO[C@H]1CC2CC[C@@H](C)[C@@](O)(O2)C(=O)C(=O)N2CCCC[C@H]2C(=O)OC([C@H](C)C[C@@H]2CC[C@@H](O)[C@H](OC)C2)CC(=O)[C@H](C)/C=C(\C)[C@@H](O)[C@@H](OC)C(=O)[C@H](C)C[C@H](C)/C=C/C=C/C=C/1C (stereo partly specified)
Response: 0

Query: Please answer likewise for `CCN(CC)CCNC(=O)c1c(C)[nH]c(/C=C2\C(=O)Nc3ccc(F)cc32)c1C`
Response: 1

Query: Please answer likewise for `CC(C)N(CCC(=O)c1ccc2ccccc2c1)Cc1ccccc1`
Response: 0

Query: Please answer likewise for `CCCC(=O)Oc1ccc2[nH]c(C(=O)c3cc4ccccc4[nH]3)cc2c1`
Response: 0

Query: Please answer likewise for `CCOC(=O)c1c(C)[nH]c(/C=C2\C(=O)Nc3ccccc32)c1C`
Response: 0

Query: Please answer likewise for `Nc1cccc(-c2cc3c(Oc4cccc(O)c4)ncnc3[nH]2)c1`
Response: 1

Query: Please answer likewise for `CCN(CC)C(=O)c1ccc(Nc2nc(OCC3CCCCC3)c3nc[nH]c3n2)cc1`
Response: 0

* * *

residual activity values, listed per item
- TESTED_TARGET: TYRO3 (human) (UniProt Q06418)
- Sequence (Q06418 whole entry, looked up): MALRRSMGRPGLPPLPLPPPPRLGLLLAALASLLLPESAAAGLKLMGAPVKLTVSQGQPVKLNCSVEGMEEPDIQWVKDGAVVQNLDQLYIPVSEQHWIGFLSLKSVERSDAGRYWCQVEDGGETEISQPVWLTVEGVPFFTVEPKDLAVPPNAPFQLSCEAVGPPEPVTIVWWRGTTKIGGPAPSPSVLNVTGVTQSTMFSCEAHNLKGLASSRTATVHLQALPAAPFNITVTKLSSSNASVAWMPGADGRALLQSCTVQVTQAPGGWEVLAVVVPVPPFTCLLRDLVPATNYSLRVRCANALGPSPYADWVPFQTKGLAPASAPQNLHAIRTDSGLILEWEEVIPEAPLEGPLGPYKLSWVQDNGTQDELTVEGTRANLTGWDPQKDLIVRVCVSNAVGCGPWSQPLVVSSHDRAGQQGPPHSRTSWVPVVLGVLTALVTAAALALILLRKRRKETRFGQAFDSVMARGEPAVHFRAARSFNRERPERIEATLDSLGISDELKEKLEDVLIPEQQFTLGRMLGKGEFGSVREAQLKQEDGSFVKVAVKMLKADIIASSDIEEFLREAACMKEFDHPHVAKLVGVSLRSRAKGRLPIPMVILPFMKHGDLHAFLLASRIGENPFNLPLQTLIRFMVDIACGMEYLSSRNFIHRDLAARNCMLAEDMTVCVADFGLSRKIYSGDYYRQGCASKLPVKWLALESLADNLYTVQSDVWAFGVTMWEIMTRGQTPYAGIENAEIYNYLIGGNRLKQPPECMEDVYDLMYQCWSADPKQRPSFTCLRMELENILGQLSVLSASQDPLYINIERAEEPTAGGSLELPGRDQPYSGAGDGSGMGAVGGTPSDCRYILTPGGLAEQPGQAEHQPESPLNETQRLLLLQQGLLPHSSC
- TEST_NAME: radiometric filter-binding kinase assay, Kinase HotSpot
- CONDITION_DETAILS: compound 0.5 µM; ATP 10 µM
All answers are understood in %, so give the number only.

Query: Hi! What's the reported residual activity for `O=C1NC(=O)c2c1c1c3ccccc3n3c1c1c2c2ccccc2n1C1CCC3O1` on TYRO3 (human) (UniProt Q06418)?
Response: 55.3

Query: Please answer likewise for `O=S(=O)(c1cccc2cnccc12)N1CCCNCC1`
Response: 87.9

Query: Please answer likewise for `CCOC(=O)c1c(C)[nH]c(/C=C2\C(=O)Nc3ccccc32)c1C`
Response: 96.9

Query: Please answer likewise for `Oc1cccc(-c2nc(N3CCOCC3)c3oc4ncccc4c3n2)c1`
Response: 102

Query: Please answer likewise for `CC#CC(=O)Nc1cc2c(Nc3ccc(F)c(Cl)c3)ncnc2cn1`
Response: 100

* * *

- TESTED_TARGET: HIPK4 (human) (UniProt Q8NE63)
- Sequence (Q8NE63 whole entry, looked up): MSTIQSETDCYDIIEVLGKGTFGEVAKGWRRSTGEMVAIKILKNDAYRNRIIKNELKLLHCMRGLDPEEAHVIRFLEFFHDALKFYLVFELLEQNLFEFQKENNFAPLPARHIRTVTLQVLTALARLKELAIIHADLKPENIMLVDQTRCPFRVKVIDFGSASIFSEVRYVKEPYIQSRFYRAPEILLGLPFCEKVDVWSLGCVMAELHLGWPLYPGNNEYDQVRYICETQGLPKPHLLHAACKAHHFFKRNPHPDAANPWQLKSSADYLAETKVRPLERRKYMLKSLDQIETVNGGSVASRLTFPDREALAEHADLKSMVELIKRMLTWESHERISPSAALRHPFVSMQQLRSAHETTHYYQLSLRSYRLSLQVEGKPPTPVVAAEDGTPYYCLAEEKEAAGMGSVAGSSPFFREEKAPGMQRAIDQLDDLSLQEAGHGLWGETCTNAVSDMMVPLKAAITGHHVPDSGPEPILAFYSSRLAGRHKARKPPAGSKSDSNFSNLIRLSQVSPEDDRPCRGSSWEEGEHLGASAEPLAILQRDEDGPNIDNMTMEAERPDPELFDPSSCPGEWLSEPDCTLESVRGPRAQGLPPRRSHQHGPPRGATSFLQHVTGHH
- TEST_NAME: radiometric filter-binding kinase assay, Kinase HotSpot
- CONDITION_DETAILS: compound 0.5 µM; ATP 10 µM
ENDPOINT_NAME: residual activity (%)
All answers are understood in %, so give the number only.

Recorded residual activity, per entry:
1. CCN(CC)C(=O)c1ccc(Nc2nc(OCC3CCCCC3)c3nc[nH]c3n2)cc1 : 96.5
2. O=C1Nc2ccc(Cl)cc2/C1=C/c1cc(Cl)c(O)c(Cl)c1 : 88.4
3. O=c1cc(N2CCOCC2)oc2c1ccc1ccccc12 : 101
4. Cc1ccc(Nc2nccc(N(C)c3ccc4c(C)n(C)nc4c3)n2)cc1S(N)(=O)=O : 109
5. O=C1NC(=O)C(c2cn(CCCn3ccnc3)c3ccccc23)=C1Nc1ccccc1 : 90.7

Query: Find the recorded residual activity belonging to `CCCC(=O)Oc1ccc2[nH]c(C(=O)c3cc4ccccc4[nH]3)cc2c1` and report it.
Response: 86.3

Query: Please answer likewise for CO[C@H]1CC2CC[C@@H](C)[C@@](O)(O2)C(=O)C(=O)N2CCCC[C@H]2C(=O)OC([C@H](C)C[C@@H]2CC[C@@H](O)[C@H](OC)C2)CC(=O)[C@H](C)/C=C(\C)[C@@H](O)[C@@H](OC)C(=O)[C@H](C)C[C@H](C)/C=C/C=C/C=C/1C (stereo not given in full)
Response: 92.9

Query: Please answer likewise for `c1ccc(-c2n[nH]c3c2oc2ccccc23)cc1`
Response: 103

Query: Please answer likewise for `Cc1ccc(NC2=CC(=O)c3sc(C)nc3C2=O)cc1`
Response: 93.7

* * *

residual activity values, listed per item
- TESTED_TARGET: IRAK1 (human)
- TEST_NAME: radiometric filter-binding kinase assay, Kinase HotSpot
- CONDITION_DETAILS: compound 0.5 µM; ATP 10 µM
All answers are understood in %, so give the number only.

Recorded residual activity, per entry:
1) c1ccc(-c2n[nH]cc2-c2ccnc3ccccc23)nc1 : 124
2) N#CC(C#N)=C(N)/C(C#N)=C/c1ccc(O)cc1 : 123
3) CCN(CC)CCNC(=O)c1c(C)[nH]c(/C=C2\C(=O)Nc3ccc(F)cc32)c1C : 31.4
4) CCN(CC)CCNC(=O)c1c(C)[nH]c(/C=C2\C(=O)Nc3ccc(Cl)cc32)c1C : 14.1
5) Cc1ccc(NC2=CC(=O)c3sc(C)nc3C2=O)cc1 : 108

Now look at this one.
Query: Hi! What's the reported residual activity for `COc1cc2ncnc(Nc3cccc(Cl)c3)c2cc1OC` on IRAK1 (human)?
Response: 86.6

* * *

- TESTED_TARGET: NEK7 (human) (UniProt Q8TDX7)
- Sequence (Q8TDX7 whole entry, looked up): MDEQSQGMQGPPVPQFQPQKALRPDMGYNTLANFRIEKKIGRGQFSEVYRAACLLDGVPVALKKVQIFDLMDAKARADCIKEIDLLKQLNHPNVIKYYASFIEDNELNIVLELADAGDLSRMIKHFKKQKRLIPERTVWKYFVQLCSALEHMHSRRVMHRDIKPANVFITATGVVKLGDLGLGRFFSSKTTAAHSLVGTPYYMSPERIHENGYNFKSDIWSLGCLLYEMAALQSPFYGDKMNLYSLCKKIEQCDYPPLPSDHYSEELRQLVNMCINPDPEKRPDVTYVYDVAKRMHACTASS
- TEST_NAME: radiometric filter-binding kinase assay, Kinase HotSpot
- CONDITION_DETAILS: compound 0.5 µM; ATP 10 µM
ENDPOINT_NAME: residual activity (%)
All answers are understood in %, so give the number only.

1. O=C1Nc2ccc(Cl)cc2/C1=C/c1cc(Cl)c(O)c(Cl)c1 : 100
2. c1ccc(-c2n[nH]cc2-c2ccnc3ccccc23)nc1 : 102

Query: Find the recorded residual activity belonging to `O=S(=O)(c1cccc2cnccc12)N1CCCNCC1` and report it.
Response: 97.5

Query: Please answer likewise for `Nc1cccc(-c2cc3c(Oc4cccc(O)c4)ncnc3[nH]2)c1`
Response: 99.4

Query: Please answer likewise for `Cc1[nH]c(/C=C2\C(=O)Nc3ccc(S(=O)(=O)N(C)c4cccc(Cl)c4)cc32)c(C)c1C(=O)N1CCN(C)CC1`
Response: 90.3

Query: Please answer likewise for `CNC(=O)c1cc(Oc2ccc(NC(=O)Nc3ccc(Cl)c(C(F)(F)F)c3)cc2)ccn1`
Response: 98.2
